- Test system: SW-620 colon
- ASSAY PROCEDURE: NCI-60 one-dose screen, 48 h
- EXPERIMENTAL CONDITIONS: 10 µM unless noted
- Description: Growth inhibition of the SW-620 human tumor cell line is measured as a screen for anti-cancer activity. Cells are grown in 96 well plates and exposed to the test compound for 48 hours. Compounds are tested at a single concentration, which is 10^-5 M for most compounds. The reported endpoint is percent growth (GI% or GIPRCNT), where numbers from 0 - 100% represent growth inhibition, and numbers from -100% - 0 represent cell death. For example, a value of 40 represents 60% growth inhibition. […]
The panel holds about 83,000 compounds, 20% with a hit somewhere; the sample as a whole holds those more often. Activity calls are given as the source filed them. How the source made its calls: active means growth percent below 10; inactive means the rest.
Outcome codes: 1 = active, -1 = inactive

{"columns": ["COMPOUND", "CAT"],
 "data": [
  ["CCCC1OC(c2ccc(C(C)C)cc2)OCC1CC (configuration not stated)", -1],
  ["CC(C)C(C(=O)CCN(C)C)c1ccc(Cl)cc1 (configuration not stated)", -1],
  ["COc1ccc(Cl)cc1NC(N)=S", -1],
  ["CN(C)C/C=C/C(=O)Nc1cc2c(Nc3cccc(Cl)c3F)ncnc2cc1OCCOC(F)F", -1],
  ["Cc1cc2c(c(=O)o1)C(c1ccc(OC(=O)N3CCOCC3)cc1)C(C#N)=C(N)O2 (configuration not stated)", -1],
  ["O=c1oc2c([nH]c3ccc4ccccc4c32)c2ccccc12", -1],
  ["COC(=O)c1ccc2nc(-c3cc4ccccc4n3C)n(CCCCOc3cc4c(cc3OC)C(=O)N3CCC[C@H]3C=N4)c2c1", 1],
  ["COc1cccc(NC(=O)c2sc3nc4c(cc3c2N)CCCC4)c1", -1],
  ["Nc1ccc(S(=O)(=O)c2ccc(Cl)cc2)cc1", -1],
  ["COc1ccc(-c2nc3sccn3c2-c2ccnc(NCCCNS(=O)(=O)c3ccc4ccccc4c3)n2)cc1", -1],
  ["COc1ccc(-n2cnc3c(sc4ncc(Cl)cc43)c2=O)cc1", -1],
  ["c1ccc([P+](CCC[P+](c2ccccc2)(c2ccccc2)c2ccccc2)(c2ccccc2)c2ccccc2)cc1", -1],
  ["N=C(N)c1ccc(-c2ccc(-c3ccc(Cl)cc3)o2)nc1", 1],
  ["CCC1CCc2nc3sc(C(=O)Nc4ccccc4C)c(N)c3cc2C1 (configuration not stated)", -1],
  ["O=P([O-])(O)OP(=O)([O-])O.[NH-][C@H]1CCCC[C@@H]1[NH-].[OH-].[OH-].[Pt+4]", -1],
  ["CCC1CCc2nc3sc(C(=O)Nc4cccc(C)c4)c(N)c3cc2C1 (configuration not stated)", -1],
  ["O=S(=O)(NCCCNc1cc(-c2cn(-c3ccccc3)nc2-c2cccc(O)c2)ccn1)c1cccc(F)c1", -1],
  ["NC(=O)NC(=O)/C=C/C(=O)OCCCl", -1],
  ["Cc1oc2nc[nH]c(=O)c2c1C(=O)/C=C/c1ccc(Cl)cc1", 1],
  ["CC1CCc2c(sc(NC(=O)CSc3nnc4ccccn34)c2C(N)=O)C1 (configuration not stated)", -1],
  ["Cc1ccc2nc(-c3c(N)n[nH]c3CCCO)[nH]c(=O)c2c1", -1],
  ["O=C(CNC(=O)c1cccc2ccccc12)Nc1ccccc1Oc1ccccc1", -1]
]}
